src = a melting point compilation (Tetko et al.; mined from patent text by program, amines drawn as free bases though some values may be those of a salt)

Measured metric: melting point

// solved cases for melting point follow
>>> print(df.to_string())
                                   compound  endpoint_result
0                        COc1cc(OC)nc(SC)n1      50 to 52 °C
1  CN(C)CC(=O)NCc1cccc(-c2csc(N=C(N)N)n2)n1           199 °C
2  CC(C)[C@H](NC(=O)OCc1ccccn1)C(=O)N[C@@H](Cc1ccccc1)C[C@H](O)[C@H](Cc1ccccc1)NC(=O)OCc1cncs1    166 to 168 °C

Given the compound CC(=O)OCC1OC(OS(C)(=O)=S)C(OC(C)=O)C(OC(C)=O)C1OC(C)=O (stereo not given) , what is its reported melting point?
118 to 119 °C

OC1C(COC2CC2)OC(n2cnc3c(NCc4cccc(I)c4)ncnc32)C1O (stereo not given) , same question.
110 to 112 °C

What would you report for CC[C@H](C)CNC(=O)[C@@H](C[C@H](O)[C@H](CC1CCCCC1)NC(=O)[C@H](Cc1cscn1)NC(=O)OC(C)(C)C)C(C)(C)O ?
190 to 193 °C
